System: topoisomerase IV (Escherichia coli, UniProt P0AFI2+P20083)
Sequence (P20083 whole entry): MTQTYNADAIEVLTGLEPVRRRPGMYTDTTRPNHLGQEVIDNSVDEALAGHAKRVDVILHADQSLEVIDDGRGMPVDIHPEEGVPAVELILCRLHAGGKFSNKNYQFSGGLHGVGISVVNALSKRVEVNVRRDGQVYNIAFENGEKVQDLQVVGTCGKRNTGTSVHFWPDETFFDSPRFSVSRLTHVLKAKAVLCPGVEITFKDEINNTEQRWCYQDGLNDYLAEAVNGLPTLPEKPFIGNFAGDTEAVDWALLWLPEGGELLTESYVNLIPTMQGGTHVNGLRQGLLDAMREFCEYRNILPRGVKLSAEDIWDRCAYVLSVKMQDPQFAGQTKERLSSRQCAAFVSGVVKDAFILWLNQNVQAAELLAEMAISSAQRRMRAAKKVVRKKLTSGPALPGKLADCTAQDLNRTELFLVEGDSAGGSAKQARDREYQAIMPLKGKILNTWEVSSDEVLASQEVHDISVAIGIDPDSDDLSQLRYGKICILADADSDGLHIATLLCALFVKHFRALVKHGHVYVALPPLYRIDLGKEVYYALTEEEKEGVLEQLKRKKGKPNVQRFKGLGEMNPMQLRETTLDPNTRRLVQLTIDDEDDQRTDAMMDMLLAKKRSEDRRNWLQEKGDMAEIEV
Sequence (P0AFI2 whole entry): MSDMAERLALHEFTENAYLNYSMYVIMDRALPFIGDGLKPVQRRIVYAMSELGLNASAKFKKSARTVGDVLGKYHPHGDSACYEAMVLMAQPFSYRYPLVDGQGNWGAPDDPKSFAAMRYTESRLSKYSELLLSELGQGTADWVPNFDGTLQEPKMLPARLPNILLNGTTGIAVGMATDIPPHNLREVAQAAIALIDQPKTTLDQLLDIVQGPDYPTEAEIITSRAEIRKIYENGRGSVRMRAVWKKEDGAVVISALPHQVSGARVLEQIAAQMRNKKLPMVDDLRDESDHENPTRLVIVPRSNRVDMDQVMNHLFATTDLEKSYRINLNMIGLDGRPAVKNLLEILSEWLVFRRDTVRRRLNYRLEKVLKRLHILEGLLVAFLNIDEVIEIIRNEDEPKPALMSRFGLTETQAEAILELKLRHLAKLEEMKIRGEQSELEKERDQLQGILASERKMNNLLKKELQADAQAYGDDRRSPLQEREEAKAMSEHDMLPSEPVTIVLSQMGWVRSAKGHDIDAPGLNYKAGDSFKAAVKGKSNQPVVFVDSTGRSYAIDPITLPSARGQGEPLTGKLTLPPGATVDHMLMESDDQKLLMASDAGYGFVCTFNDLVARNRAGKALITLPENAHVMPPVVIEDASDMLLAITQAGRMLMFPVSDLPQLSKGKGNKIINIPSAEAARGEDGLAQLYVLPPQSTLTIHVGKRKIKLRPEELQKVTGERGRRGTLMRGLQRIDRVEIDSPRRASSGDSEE
Experimental Protocol: Topoisomerase IV relaxation, microplate assay
Type: biochemical
Reported Conditions: supercoiled pNO1 substrate, plate assay; read-out: Topo IV Relaxation IC50 Plate assay
Observation Type: IC50

>>> value("CO[C@@H]1[C@@H](OC(=O)c2ccc(C)[nH]2)[C@@H](O)[C@H](Oc2ccc3c(O)c(NC(=O)c4ccc(O)c(CC=C(C)C)c4)c(=O)oc3c2Cl)OC1(C)C [Chlorbiocin]")
"320 nM"

====

System: topoisomerase IV (Escherichia coli, UniProt P0AFI2+P20083)
Experimental Protocol: Topoisomerase IV relaxation, gel electrophoresis assay
Format: biochemical
Reported Conditions: supercoiled pNO1 substrate, gel assay; read-out: Topo IV Relaxation IC50 Gel assay
Observation Type: IC50 (nM)

>>> value("CO[C@@H]1[C@@H](OC(=O)c2ccc(C)[nH]2)[C@@H](O)[C@H](Oc2ccc3c(O)c(NC(=O)c4ccc(O)c(CC=C(C)C)c4)c(=O)oc3c2Cl)OC1(C)C [Chlorbiocin]")
140

# credit: patent US7838230B2
